Values from patent US20250195521A1

molecular target: NRAS G12C (Homo sapiens (Human), UniProt P01111+P62937, G12C); assay: Ras-Raf disruption/FRET/MOA assay (BRAF RBD, Cyclophilin A); format: biochemical; conditions: read-out: NRAS G12C FRET data IC50
Sequence (P01111 whole entry G12C): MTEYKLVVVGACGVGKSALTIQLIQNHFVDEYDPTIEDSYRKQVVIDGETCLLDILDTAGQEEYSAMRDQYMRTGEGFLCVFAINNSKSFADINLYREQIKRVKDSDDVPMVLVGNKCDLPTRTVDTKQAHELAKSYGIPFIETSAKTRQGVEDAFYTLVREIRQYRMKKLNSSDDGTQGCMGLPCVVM
Sequence (P62937 whole entry): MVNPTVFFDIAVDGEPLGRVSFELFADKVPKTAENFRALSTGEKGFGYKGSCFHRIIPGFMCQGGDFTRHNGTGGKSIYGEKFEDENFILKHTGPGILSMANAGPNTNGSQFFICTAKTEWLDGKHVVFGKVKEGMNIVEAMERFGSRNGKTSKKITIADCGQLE

structure-string	IC50
CCn1c(-c2cccnc2[C@H](C)OC)c2c3cc(ccc31)-c1cc(O)cc(c1)C[C@H](NC(=O)[C@H](C(C)C)N(C)C(=O)[C@@H]1CCCC[C@@H]1N)C(=O)N1CCC[C@H](N1)C(=O)OCC(C)(C)C2	10 to 100 nM
CCn1c(-c2cccnc2[C@H](C)OC)c2c3cc(ccc31)-c1cc(O)cc(c1)C[C@H](NC(=O)[C@H](C(C)C)N(C)C(=O)[C@H]1CCN(C(=O)[C@@H](C)N(C)C)C1)C(=O)N1CCC[C@H](N1)C(=O)OCC(C)(C)C2	10 to 100 nM
